// protein stability index lookup, one value per entry
B1: C8orf76 (parent)
chain: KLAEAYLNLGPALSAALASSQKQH

- Variants of: B1
- EXPERIMENT NOTES: protein stability index of a GFP-peptide fusion (GPS, HEK-293T) (PSI 1-6); higher = more stable;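 also: lentivirally expressed fusions sorted by FACS into six bins by GFP to DsRed ratio, PSI derived from sequencing read proportions per bin multiplied by bin number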
- SETUP CONDITIONS: c terminus: a fixed tail appended
Answer as a number with no unit attached.

Use these answered entries as a reference point.
KLAEEYLNLGPALSAALASSQKQH [A5E] = 2.96
KLDEAYLNLGPALSAALASSQKQH [A3D] = 3.08
KLAEAYLNLGPALSAALASVQKQH [S20V] = 3.17
KLAEAYLNLGPANSAALASSQKQH [L13N] = 2.31
KLAEAYLNLGPAASAALASSQKQH [L13A] = 1.99

The recorded protein stability index for KLAEAYLSLGPALSAALASSQKQH [N8S] is 3.78

The recorded protein stability index for KLAEAYLNLGSALSAALASSQKQH [P11S] is 3.4

The recorded protein stability index for KLAEAYLNLGPAWSAALASSQKQH [L13W] is 2.06

The recorded protein stability index for KLAEARLNLGPALSAALASSQKQH [Y6R] is 2.98

The recorded protein stability index for KLAEAYLNLGCALSAALASSQKQH [P11C] is 2.49
